Recorded values, source paper PMC10504751.

Consider the following molecules and their measured inhibition at 10 µM readings.
Tested on: SK-OV-3
Test: NCI one-dose SRB anti-proliferative screen
Assay type: cell-based
Conditions: Homo sapiens; SK-OV-3 (Ovarian Cancer), NCI one dose 10 µM; read-out: Cell growth inhibition %

[
  {
    "Molecule": "COc1cc(-c2nc3cc(-c4nnc(SCC(=O)Nc5ccc(C(=O)/C=C/c6ccc(Cl)cc6)cc5)o4)ccc3[nH]2)cc(OC)c1OC [Compound 7v]",
    "Unit Annotation": "%",
    "inhibition at 10 µM": 0
  },
  {
    "Molecule": "O=C(CSc1nnc(-c2ccc3[nH]c(-c4ccc(Cl)cc4)nc3c2)o1)Nc1ccc(C(=O)/C=C/c2ccc(Cl)cc2)cc1 [Compound 7g]",
    "Unit Annotation": "%",
    "inhibition at 10 µM": 0
  },
  {
    "Molecule": "O=C(CSc1nnc(-c2ccc3[nH]c(-c4ccc(Cl)cc4)nc3c2)o1)Nc1ccc(C(=O)/C=C/c2ccccc2)cc1 [Compound 7f]",
    "Unit Annotation": "%",
    "inhibition at 10 µM": 0
  },
  {
    "Molecule": "COc1ccc(-c2nc3cc(-c4nnc(SCC(=O)Nc5ccc(C(=O)/C=C/c6ccccc6)cc5)o4)ccc3[nH]2)cc1OC [Compound 7p]",
    "Unit Annotation": "%",
    "inhibition at 10 µM": 0
  },
  {
    "Molecule": "COc1ccc(-c2nc3cc(-c4nnc(SCC(=O)Nc5ccc(C(=O)/C=C/c6ccc(Cl)cc6)cc5)o4)ccc3[nH]2)cc1OC [Compound 7q]",
    "Unit Annotation": "%",
    "inhibition at 10 µM": 0
  },
  {
    "Molecule": "COc1cc(-c2nc3cc(-c4nnc(SCC(=O)Nc5ccc(C(=O)/C=C/c6ccccc6)cc5)o4)ccc3[nH]2)cc(OC)c1OC [Compound 7u]",
    "Unit Annotation": "%",
    "inhibition at 10 µM": 0
  },
  {
    "Molecule": "COc1ccc(/C=C/C(=O)c2ccc(NC(=O)CSc3nnc(-c4ccc5[nH]c(-c6ccc(OC)c(OC)c6)nc5c4)o3)cc2)cc1 [Compound 7r]",
    "Unit Annotation": "%",
    "inhibition at 10 µM": 0
  },
  {
    "Molecule": "COc1ccc(/C=C/C(=O)c2ccc(NC(=O)CSc3nnc(-c4ccc5[nH]c(-c6ccc(Cl)cc6)nc5c4)o3)cc2)cc1 [Compound 7h]",
    "Unit Annotation": "%",
    "inhibition at 10 µM": 0
  }
]
